Reference for the values: ChEMBL document CHEMBL1130347

Each item that follows carries a reported pIC50.
# studyTarget: Somatostatin receptor type 4 (Homo sapiens)
# Sequence (P31391 whole entry): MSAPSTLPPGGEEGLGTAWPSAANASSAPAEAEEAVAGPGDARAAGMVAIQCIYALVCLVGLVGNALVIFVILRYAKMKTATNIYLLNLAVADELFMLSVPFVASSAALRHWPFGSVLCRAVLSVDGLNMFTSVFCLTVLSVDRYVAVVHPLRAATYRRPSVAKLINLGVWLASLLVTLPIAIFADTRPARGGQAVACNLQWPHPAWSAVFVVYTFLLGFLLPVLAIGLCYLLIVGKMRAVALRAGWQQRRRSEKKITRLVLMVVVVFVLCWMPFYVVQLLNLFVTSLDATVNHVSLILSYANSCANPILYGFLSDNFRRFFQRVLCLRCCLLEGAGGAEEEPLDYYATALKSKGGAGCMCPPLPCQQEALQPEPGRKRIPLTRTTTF
# methodDescription: Tested for inhibition of radioligand binding to cloned somatostatin receptor hSSTR4
pIC50: −log10 of the molar value.

C[C@@H](O)[C@H](NC(=O)[C@@H]1CSC[C@H](NC(=O)[C@H](N)Cc2ccccc2)C(=O)N[C@@H](Cc2ccccc2)C(=O)N[C@H](Cc2c[nH]c3ccccc23)C(=O)N[C@@H](CCCCN)C(=O)N[C@@H]([C@@H](C)O)C(=O)N1)C(N)=O
< 6.00

Let us move to another entry and its pIC50.
Query string: Any idea what its pIC50 is? The compound is C[C@@H](O)[C@@H]1NC(=O)[C@H](CCCCN)NC(=O)[C@@H](Cc2c[nH]c3ccccc23)NC(=O)[C@H](Cc2ccccc2)NC(=O)[C@@H](NC(=O)[C@H](N)Cc2ccccc2)CSC[C@@H](C(=O)O)NC1=O
Result string: < 6.00
